pIC50: −log10 of the molar value.
Entries below carry reported pIC50 on ErbB4 (Homo sapiens, UniProt Q15303).
Sequence (Q15303 26-1308, species assumed): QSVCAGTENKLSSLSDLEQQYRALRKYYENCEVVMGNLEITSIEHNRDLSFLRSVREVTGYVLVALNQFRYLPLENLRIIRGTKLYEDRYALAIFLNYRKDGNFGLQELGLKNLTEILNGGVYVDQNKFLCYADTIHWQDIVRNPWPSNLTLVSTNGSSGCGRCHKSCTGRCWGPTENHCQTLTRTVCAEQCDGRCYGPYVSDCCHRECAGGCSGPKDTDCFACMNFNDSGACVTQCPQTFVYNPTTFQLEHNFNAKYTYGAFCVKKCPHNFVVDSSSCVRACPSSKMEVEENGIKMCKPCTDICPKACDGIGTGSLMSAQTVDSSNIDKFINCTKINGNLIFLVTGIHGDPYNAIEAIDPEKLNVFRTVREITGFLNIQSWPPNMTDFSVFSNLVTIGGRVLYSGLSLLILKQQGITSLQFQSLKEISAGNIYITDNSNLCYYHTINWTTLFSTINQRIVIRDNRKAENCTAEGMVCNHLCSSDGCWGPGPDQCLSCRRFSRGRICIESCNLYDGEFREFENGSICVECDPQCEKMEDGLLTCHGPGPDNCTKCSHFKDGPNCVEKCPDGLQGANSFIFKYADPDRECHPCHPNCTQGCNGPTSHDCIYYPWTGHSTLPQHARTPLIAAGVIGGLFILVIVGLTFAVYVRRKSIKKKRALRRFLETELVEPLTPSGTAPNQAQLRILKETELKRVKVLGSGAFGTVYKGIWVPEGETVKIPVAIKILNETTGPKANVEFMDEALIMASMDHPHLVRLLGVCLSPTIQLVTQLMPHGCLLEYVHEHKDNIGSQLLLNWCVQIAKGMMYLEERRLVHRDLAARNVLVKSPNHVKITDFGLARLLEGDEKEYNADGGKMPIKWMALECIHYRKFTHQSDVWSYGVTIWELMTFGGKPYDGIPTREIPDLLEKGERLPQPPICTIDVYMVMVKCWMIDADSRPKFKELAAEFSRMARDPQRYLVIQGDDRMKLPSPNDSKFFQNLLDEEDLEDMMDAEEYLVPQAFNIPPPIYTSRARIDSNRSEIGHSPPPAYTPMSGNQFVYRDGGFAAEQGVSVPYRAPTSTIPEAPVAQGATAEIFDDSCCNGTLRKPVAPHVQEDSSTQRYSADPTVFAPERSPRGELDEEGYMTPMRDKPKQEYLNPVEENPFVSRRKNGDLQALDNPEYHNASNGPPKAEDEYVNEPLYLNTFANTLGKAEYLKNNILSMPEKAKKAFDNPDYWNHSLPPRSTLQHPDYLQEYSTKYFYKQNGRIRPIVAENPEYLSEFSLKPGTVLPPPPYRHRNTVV

CCOc1ccc(Nc2ncnc(Nc3ccc(C)c(O)c3)n2)cc1OCC [Compound 121] tested on ErbB4 (Homo sapiens, UniProt Q15303) gave pIC50: 5.20 to 5.98

COc1cc(Nc2ncnc(N(C)c3ccc(Cl)cc3)n2)cc(OC)c1OC [Compound 616] tested on ErbB4 (Homo sapiens, UniProt Q15303) gave pIC50: 5.22 to 6.00

CC(=O)NS(=O)(=O)c1ccc(Nc2ncnc(-n3c(N)nc4ccccc43)n2)cc1 [Compound 440] tested on ErbB4 (Homo sapiens, UniProt Q15303) gave pIC50: 5.25 to 6.03
